Form field: GI50 (one value per entry).
System: MOLT-4
Assay info: NCI tumour cell line growth inhibition, 48 h
Active and inactive are the calls of the source. Cut-off read from the data, not from the text of the source: active = GI50 up to about 1.1 µM and inactive = higher.

Solved cases below.
# Molecule, System tested, GI50
records = [
    ("COc1cc([C@@H]2Oc3cc4oc(-c5ccccc5)cc(=O)c4c(O)c3O[C@H]2OC)ccc1O", "MOLT-4", "4.91 µM (inactive)"),
    ("COc1cc(/C=C(\\C)c2ccc3c(c2)OCO3)cc(OC)c1OC", "MOLT-4", "16.7 µM (inactive)"),
    ("Cc1cc2c3c(ccc4[nH]cc(c43)CN2c2ccc(NS(C)(=O)=O)cc2)n1", "MOLT-4", "3.02 µM (inactive)"),
    ("[N-]=[N+]=C1C(=O)C2CC3CC(C2)CC1C3", "MOLT-4", "> 100 µM (inactive)"),
    ("CC(C)CC(C(N)=O)C(=O)NC(Cc1ccccc1)NC(=O)CNC(=O)C(C)NC(=O)C(N)Cc1ccc(O)cc1 (stereo unspecified)", "MOLT-4", "> 100 µM (inactive)"),
]

# evaluate next
Task item: Reported GI50 for `NC(=O)c1cn(Cc2ccccc2)c(=O)n1Cc1ccccc1` : what is it?
Reply: > 100 µM (inactive)

---

Tested on: HOP-18
Assay info: NCI tumour cell line growth inhibition, 48 h
The source made the active and inactive calls. Cut-off read from the data, not from the text of the source: active = GI50 up to about 1.1 µM and inactive = higher.
Your answer must be one of the following: yes (active), no (inactive)

Previously resolved entries follow.
# Compound, System tested, Assigned class
rows = [
    ("O=C1C(Cl)=C(Cl)C(=O)N1c1cccc(C(F)(F)F)c1", "HOP-18", "no"),
    ("C=C(CN(C)C)C(=O)c1ccccc1OC", "HOP-18", "no"),
    ("CC(=O)C1CC2(c3ccccc3)C(=O)c3ccccc3N2O1 (configuration not stated)", "HOP-18", "no"),
    ("CC1=C(NC(=O)C(=O)NNC(=O)c2ccncc2)C(=O)c2ccccc2C1=O", "HOP-18", "no"),
    ("OC12c3ccccc3C1CCCCCCCCCC21OCCO1 (configuration not stated)", "HOP-18", "no"),
]

Task item: Record lookup: outcome of this test for `CCOc1ccc(NC(=O)C(=O)CC(=O)c2c[n+]([O-])c3cc(C)c(C)cc3[n+]2[O-])cc1` ?
Reply: no

Task item: Consider next the compound `O=C(O)COc1ccc(C(=O)/C(SS/C(C(=O)c2ccc(OCC(=O)O)c(Cl)c2Cl)=C2\C=C(c3ccccc3Cl)SS2)=C2/C=C(c3ccccc3Cl)SS2)c(Cl)c1Cl` in the same way.
Reply: no

Task item: Entry to check: `CC(=O)CC(=O)NC=O`
Reply: no

---

# GI50 annotations
Test system: OVCAR-4
Assay info: NCI tumour cell line growth inhibition, 48 h
The source made the active and inactive calls. Rule as the data show it: active = GI50 up to about 1.1 µM and inactive = higher.

Look over these answered cases.
# Molecule, GI50
records = [
    ("C=C1C(=O)O[C@H]2C1C[C@H](O)[C@@]1(C)OC1CC[C@@]1(C)O[C@H]21 (stereo partly drawn)", "13.6 µM (inactive)"),
    ("CCOP(=O)(OCC)OC1c2[nH]ccc2-c2cc(C(=O)OC)[nH]c2C1OC (stereo not drawn)", "> 100 µM (inactive)"),
    ("CC(C)c1cccc(C(C)C)c1NC(=O)CCC(=O)NN", "> 100 µM (inactive)"),
]

Task item: # returns recorded GI50 (system: OVCAR-4) for CC1=NNC(=O)C2CCC(=O)N12 (stereo not drawn)
Reply: > 100 µM (inactive)

From: ChEMBL document CHEMBL1201862
